- target entity: KRAS G12D (Homo sapiens, UniProt P01116+P62937, G12D)
- Sequence (P01116 1-169 isoform P01116-2 G12D limits assumed): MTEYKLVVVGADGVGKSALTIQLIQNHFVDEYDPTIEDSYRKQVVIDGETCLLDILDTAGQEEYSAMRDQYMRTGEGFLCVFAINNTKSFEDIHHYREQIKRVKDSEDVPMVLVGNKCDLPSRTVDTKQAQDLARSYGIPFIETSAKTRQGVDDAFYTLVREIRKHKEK
- Sequence (P62937 whole entry): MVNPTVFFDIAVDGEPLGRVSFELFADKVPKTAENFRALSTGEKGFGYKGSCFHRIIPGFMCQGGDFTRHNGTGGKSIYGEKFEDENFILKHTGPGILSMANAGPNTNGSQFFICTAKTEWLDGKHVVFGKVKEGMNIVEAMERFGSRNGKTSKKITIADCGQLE
- experiment description: Ras-Raf disruption/FRET/MOA assay, KRAS G12D
- Format: biochemical
- run parameters: disruption of BRAF RBD binding, with Cyclophilin A; read-out: KRAS G12D FRET IC50
pIC50: −log10 of the molar value.
Exercise: state measured pIC50 for each of the molecules provided.

>  <molecule>
CCn1c(-c2cnccc2COC)c2c3cc(ccc31)-c1cc(O)cc(c1)C[C@H](NC(=O)[C@H](C(C)C)N(C)C(=O)CN1C(=O)[C@@H]3[C@H](C1=O)N3Cc1ccccc1)C(=O)N1CCC[C@H](N1)C(=O)OCC(C)(C)C2 (some centres unmarked)

>  <target entity>
KRAS G12D (Homo sapiens, UniProt P01116+P62937, G12D)

>  <value observed>
< 5.00

$$$$

Consider the molecule "CCn1c(-c2cnccc2COC)c2c3cc(ccc31)-c1cc(O)cc(c1)C[C@H](NC(=O)[C@H](C(C)C)N(C)C(=O)CN(C)C(=O)[C@@H]1CN1C(=O)OC)C(=O)N1CCC[C@H](N1)C(=O)OCC(C)(C)C2" . State its measured pIC50. 6.00 to 7.00
